Biological target: GLP-1 receptor (rat, UniProt P32301)
Assay: competition of [^125I]GLP-1 binding to rat hypothalamic membranes, unlabeled peptide varied
measured_parameter: pIC50
# log scale: pIC50 equals minus log10 of the concentration in mol/L

Consider the binder HSQGTFTSDYSKYLDSRRAQDFVQWLMNTKRNKNNIA [oxyntomodulin (OXM)] and give its measured pIC50.
8.09
